Catalogue of binders with associated mean fluorescence relative to chimeric antibody
Study system: T1, dog CD47 (dog, UniProt A0A8I3PM61 19-310)
T1 construct: also called CD47 on dog RBCs
T1 sequence: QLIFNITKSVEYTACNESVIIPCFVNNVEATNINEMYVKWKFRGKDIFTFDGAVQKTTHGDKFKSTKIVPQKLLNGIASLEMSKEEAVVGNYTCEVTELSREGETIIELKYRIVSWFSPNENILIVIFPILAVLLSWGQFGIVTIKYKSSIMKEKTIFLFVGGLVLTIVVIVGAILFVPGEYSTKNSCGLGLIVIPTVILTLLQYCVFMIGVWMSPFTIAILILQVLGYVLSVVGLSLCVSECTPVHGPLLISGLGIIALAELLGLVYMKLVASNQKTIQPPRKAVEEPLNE
Test: flow cytometry on RBCs, CHO supernatant 10 ng/ml
Measurement label: mean fluorescence relative to chimeric antibody (ratio)

Clone 7 (pVxK7b-037-hum07-LC / pVxK7b-037-hum07-HC) (antibody, human IgG1, kappa, V domains shown) VH: QVQLQESGPGLVKPGATVKISCKVSGYTFTNYYVFWVRQARGQRLEWIGDINPVNGDTNFNEKFKNRVTITADKSTSTAYMELSSLRSEDTAVYYCARGGYTMDYWGQGTLVTVSS VL: DIVMTQTPLSLPVTPGEPASISCRSSQSLVHSNGNTYLHWYLQKPGQSPQLLIYKVSYRFSGVPDRFSGSGSGTDFTLKISRVEAEDVGVYYCSQNTHVPRTFGQGTKVEIKR	0.8
Clone 2 (pVxK7b-037-hum02-LC / pVxK7b-037-hum02-HC) (antibody, human IgG1, kappa, V domains shown) VH: QVQLQESGPGLVKPSQTLSLTCTVSGYTFTNYYVFWVRQARGQRLEWIGDINPVNGDTNFNEKFKNRVTISADKSISTAYLQWSSLKASDTAMYYCARGGYTMDYWGQGTLVTVSS VL: DVVMTQSPLSLPVTLGQPASISCRSSQSLVHSNGNTYLHWYQQKPGQAPRLLIYKVSYRFSGVPSRFSGSGSGTEFTLTISSLQPDDFATYYCSQNTHVPRTFGQGTKVEIKR	1
chimeric antibody VxP037-01LC-Pro/VxP037-01HC-Pro (antibody, human IgG1, kappa, V domains shown, also called Chimera; VxP037-01LC/VxP037-01HC) VH: EVQLQQFGAELVKPGASMKLSCKASGYTFTNYYVFWVKQRPGQGLEWIGDINPVNGDTNFNEKFKNKATLTVDKSSTTTYLQLSSLTSEDSAVYYCTRGGYTMDYWGQGTLVTVSS VL: DVVMTQTPLSLSVSLGDQASISCRSSQSLVHSNGNTYLHWYLQKPGQSPKLLIYKVSYRFSGVPDRFSGSGSGTDFTLKISRVEAEDLGVYFCSQNTHVPRTFGQGTKVEIKR	1

Just for reference, patent US20150274826A1 is where these values come from.
